System Name: Lethal factor (Bacillus anthracis)
Measurement Notes: Lethal factor protease inhibitors, Bacillus anthracis, multiplex microsphere cleavage assay, validation set (AID 588461)
Conditions: flow cytometry, at 10 µM, hits give high values
Quantity: inhibition (%)
// note: answer is a bare numeric in %

Previously resolved entries follow.
Tested system Lethal factor (Bacillus anthracis); inhibition recorded for Cc1ccc(C(=O)NC(=S)NCCCN2CCOCC2)cc1 was 6.1

Tested system Lethal factor (Bacillus anthracis); inhibition recorded for COc1ccc(CCN=C(N)C(C)c2ccccc2)cc1OC (stereo unspecified) was 6.6

Tested system Lethal factor (Bacillus anthracis); inhibition recorded for O=C(CCCN1C(=O)/C(=C\c2cccc(Br)c2)SC1=S)Nc1cccnc1 was 2.4

Tested system Lethal factor (Bacillus anthracis); inhibition recorded for O=C(NC1CC1)C1CCN(C2CCN(C(=O)Cc3ccc(F)cc3)CC2)CC1 was 4.9

Tested system Lethal factor (Bacillus anthracis); inhibition recorded for COc1c2ccoc2nc2c(OC)cccc12 was 3

More entries:
Tested system Lethal factor (Bacillus anthracis); inhibition recorded for CC(C)(C)OC(=O)COc1cc(OCC(=O)OC(C)(C)C)c2c(=O)cc(-c3ccccc3)oc2c1 was -7.2

Tested system Lethal factor (Bacillus anthracis); inhibition recorded for CC(=O)NC(Cc1c[nH]c2ccccc12)C(=O)N/N=C/c1ccccc1 (stereo unspecified) was -5.7

Tested system Lethal factor (Bacillus anthracis); inhibition recorded for COc1ccc(CN(CCC(c2ccccc2)c2ccc(OC(C)C)cc2)C(=O)CCl)cc1OC (stereo unspecified) was -6.4

Tested system Lethal factor (Bacillus anthracis); inhibition recorded for O=C(CCC(=O)c1cccs1)c1cccs1 was -3.3

Tested system Lethal factor (Bacillus anthracis); inhibition recorded for Cc1ncc([N+](=O)[O-])n1CC(O)CCl (stereo unspecified) was 2.5

Tested system Lethal factor (Bacillus anthracis); inhibition recorded for O=C(c1ccco1)N1CCCN(Cc2nc(-c3ccc4c(c3)OCO4)no2)CC1 was 3.6

Tested system Lethal factor (Bacillus anthracis); inhibition recorded for CCCC[N+]1(C)[C@@H]2CC(OC(=O)[C@H](CO)c3ccccc3)C[C@H]1[C@@H]1O[C@@H]12 (stereo partly specified) was -5.3

Tested system Lethal factor (Bacillus anthracis); inhibition recorded for O=c1[nH]c(Cc2ccccc2)nc2c1oc1ccccc12 was 8.7

Tested system Lethal factor (Bacillus anthracis); inhibition recorded for COC(=O)c1sccc1NC(=O)Nc1ccccc1F was 1.2

Tested system Lethal factor (Bacillus anthracis); inhibition recorded for O=C1CCCN1CCCn1cnc2c([nH]c3ccc(F)cc32)c1=O was 2.3

Tested system Lethal factor (Bacillus anthracis); inhibition recorded for CCn1ccnc1CN(C)Cc1cn(-c2cccc(C)c2)nc1-c1cccc(F)c1 was -3.5

Tested system Lethal factor (Bacillus anthracis); inhibition recorded for CN(C)[C@@H]1C(=O)C(C(=O)NCN2CCCC2)=C(O)[C@@]2(O)C(=O)C3=C(O)c4c(O)cccc4[C@@](C)(O)C3CC12 (stereo partly specified) was -8.3

Tested system Lethal factor (Bacillus anthracis); inhibition recorded for c1cnc2c(c1)ccc1cccnc12 was -2.3

Tested system Lethal factor (Bacillus anthracis); inhibition recorded for COc1ccc(OC)c(S(=O)(=O)N2CCCc3ccccc32)c1 was -0.9

Tested system Lethal factor (Bacillus anthracis); inhibition recorded for C=CCC1(Cl)C(=O)C(Cl)=C(N2CCOCC2)C1(OC)OC (stereo unspecified) was 0

Tested system Lethal factor (Bacillus anthracis); inhibition recorded for CCCC(CCC)C(=O)OC1C[C@H]2CC[C@@H](C1)[N+]2(C)C (stereo partly specified) was 2.3

Tested system Lethal factor (Bacillus anthracis); inhibition recorded for CCc1cc(C(N)=S)ccn1 was -2.7

Tested system Lethal factor (Bacillus anthracis); inhibition recorded for COC(=O)c1ccccc1NC(=O)c1ccc(COc2ccc3c(c2)CCC3)cc1 was 2

Tested system Lethal factor (Bacillus anthracis); inhibition recorded for C/C(NC(=O)c1cccs1)=C1\C(=O)C[C@@H]2[C@H]1C2(C)C was 3.4
